System: Staphylococcus aureus
Test: Antimicrobial activity against methicillin-resistant Staphylococcus aureus isolate 1862 by two-fold serial dilution method
Format: functional
What MIC was measured for each of the following?
// note: answer is a bare numeric in mg/L

Q: Entry "CN[C@H](CC(C)C)C(=O)N[C@H]1C(=O)N[C@@H](CC(N)=O)C(=O)N[C@H]2C(=O)N[C@H]3C(=O)N[C@H](C(=O)N[C@H](C(=O)O)c4cc(O)cc(O)c4-c4cc3ccc4O)[C@H](O)c3ccc(c(Cl)c3)Oc3cc2cc(c3O[C@@H]2O[C@H](CO)[C@@H](O)[C@H](O)[C@H]2O[C@H]2C[C@](C)(N)[C@H](O)[C@H](C)O2)Oc2ccc(cc2Cl)[C@H]1O" needs its MIC filled in; supply it.
Ans: 0.125

Q: Entry "C[C@H]1CC/C(O)=C2/C(=O)O[C@]34C[C@H](C)[C@]5(C)O[C@]23[C@H](C1=O)[C@@H](S[C@H]1[C@H]2[C@H](O)[C@@]3(C)O[C@@]67/C(=C(/O)CC[C@H](C)C(=O)[C@H]16)C(=O)O[C@@]27C[C@@H]3C)[C@H]4[C@@H]5O" needs its MIC filled in; supply it.
Ans: 16

Q: Entry "CC1(C)S[C@@H]2[C@H](NC(=O)[C@H](N)c3ccccc3)C(=O)N2[C@H]1C(=O)O" needs its MIC filled in; supply it.
Ans: 0.125

Q: Entry "C[C@H]1CCC(=O)C2=C3O[C@@]4(C)[C@@H](C)C[C@]3(OC2=O)[C@@H]([C@H](S[C@H]2[C@H]3[C@H](O)[C@@]5(C)O[C@@]67/C(=C(/O)CC[C@H](C)C(=O)[C@H]26)C(=O)O[C@@]37C[C@@H]5C)CC1=O)[C@@H]4O" needs its MIC filled in; supply it.
Ans: 16

---

System: Enterococcus faecalis
Test: Antimicrobial activity against Enterococcus faecalis ATCC 29212 by two-fold serial dilution method
Type: functional
value-type: MIC (µg/mL)
// note: answer is a bare numeric in µg/mL

Q: Fill: MIC (Enterococcus faecalis) for this compound "CC1(C)S[C@@H]2[C@H](NC(=O)[C@H](N)c3ccccc3)C(=O)N2[C@H]1C(=O)O"
Ans: 16

Q: Fill: MIC (Enterococcus faecalis) for this compound "C[C@H]1CC/C(O)=C2/C(=O)O[C@]34C[C@H](C)[C@]5(C)O[C@]23[C@H](C1=O)[C@@H](S[C@H]1[C@H]2[C@H](O)[C@@]3(C)O[C@@]67/C(=C(/O)CC[C@H](C)C(=O)[C@H]16)C(=O)O[C@@]27C[C@@H]3C)[C@H]4[C@@H]5O"
Ans: 32

Q: Fill: MIC (Enterococcus faecalis) for this compound "CN[C@H](CC(C)C)C(=O)N[C@H]1C(=O)N[C@@H](CC(N)=O)C(=O)N[C@H]2C(=O)N[C@H]3C(=O)N[C@H](C(=O)N[C@H](C(=O)O)c4cc(O)cc(O)c4-c4cc3ccc4O)[C@H](O)c3ccc(c(Cl)c3)Oc3cc2cc(c3O[C@@H]2O[C@H](CO)[C@@H](O)[C@H](O)[C@H]2O[C@H]2C[C@](C)(N)[C@H](O)[C@H](C)O2)Oc2ccc(cc2Cl)[C@H]1O"
Ans: 0.25

Q: Fill: MIC (Enterococcus faecalis) for this compound "C[C@H]1CCC(=O)C2=C3O[C@@]4(C)[C@@H](C)C[C@]3(OC2=O)[C@@H]([C@H](S[C@H]2[C@H]3[C@H](O)[C@@]5(C)O[C@@]67/C(=C(/O)CC[C@H](C)C(=O)[C@H]26)C(=O)O[C@@]37C[C@@H]5C)CC1=O)[C@@H]4O"
Ans: 32
